method-summary: collision cross section (TWIMS, N2) of ion [M+H]+; higher = larger gas-phase ion cross section
condition-label: ionization: ESI positive; LC: HILIC, pH 3.0 ammonium formate

# compound, collision cross section (Å²)
measured = [
    ("O=C(O)c1cc(O)c2cccc(O)c2n1", 136.81),
    ("C[N+](C)(C)CC(=O)O", 125.33),
    ("O=c1ccn([C@@H]2O[C@H](CO)[C@@H](O)[C@H]2O)c(=O)[nH]1", 146.3),
    ("NCCS(=O)(=O)O", 126.38),
    ("CC/C=C\\C/C=C\\C/C=C\\C/C=C\\C/C=C\\CCCC(=O)O", 177.23),
    ("O=C1O[C@H]([C@@H](O)CO)C(O)=C1O", 134.39),
    ("NCCCNCCCCNCCCN", 150.86),
    ("CCCCCCC(=O)OC [Methyl heptanoate]", 137.86),
    ("O=C(O)c1cc(=O)c2ccccc2[nH]1", 135.88),
    ("CC(C)C[C@H](N)C(=O)O", 131.44),
    ("CCCCCC/C=C\\CCCCCCCC(=O)O", 175.21),
]

###

method-summary: retention time on BEH HILIC column (20 min gradient, 0.4 mL/min); higher = later elution
condition-label: ionization: ESI negative; LC: HILIC, pH 9.0 ammonium acetate
Label Fulfilled when retention time on BEH HILIC column is at or above 9 min; anything below gets Not fulfilled.

# molecule, cat
measured = [
    ("O=C(O)CNC(=O)Cc1ccccc1", "Not fulfilled"),
    ("O=C(O)[C@H]1O[C@H](OP(=O)(O)OP(=O)(O)OC[C@H]2O[C@@H](n3ccc(=O)[nH]c3=O)[C@H](O)[C@@H]2O)[C@H](O)[C@@H](O)[C@@H]1O", "Fulfilled"),
    ("CC(C)(COP(=O)(O)OP(=O)(O)OC[C@H]1O[C@@H](n2cnc3c(N)ncnc32)[C@H](O)[C@@H]1OP(=O)(O)O)[C@@H](O)C(=O)NCCC(=O)NCCSC(=O)CCC(=O)O", "Fulfilled"),
    ("O=P(O)(O)O[C@H]1O[C@H](CO)[C@@H](O)[C@H](O)[C@H]1O [Glucose 1-phosphate]", "Fulfilled"),
    ("CCCCCCCCCCCCCCCCCCC(=O)O", "Not fulfilled"),
    ("O=c1[nH]c(=O)c2[nH]c(=O)[nH]c2[nH]1", "Not fulfilled"),
]

###

method-summary: collision cross section (TWIMS, N2) of ion [M-H]-; higher = larger gas-phase ion cross section
condition-label: ionization: ESI negative; LC: HILIC, pH 9.0 ammonium acetate

# compound, uom, collision cross section
rows = [
    ("CC(=O)N[C@H]1[C@@H](OP(=O)(O)OP(=O)(O)OC[C@H]2O[C@@H](n3ccc(=O)[nH]c3=O)[C@H](O)[C@@H]2O)O[C@H](CO)[C@@H](O)[C@@H]1O", "Å²", 219.62),
    ("O=c1ccn([C@@H]2O[C@H](CO)[C@@H](O)[C@H]2O)c(=O)[nH]1", "Å²", 153.03),
    ("O=C(O)[C@H]1O[C@H](O)[C@H](O)[C@@H](O)[C@@H]1O", "Å²", 129.91),
    ("CC(C)CC(=O)C(=O)O", "Å²", 128.21),
    ("CC[C@H](O)C(=O)O [2-hydroxybutyric acid]", "Å²", 119.98),
    ("O=C(O)c1cccnc1", "Å²", 121.16),
    ("CCCCCCCCCC(=O)O", "Å²", 151.28),
    ("NC(=O)NC1NC(=O)NC1=O (stereo not given)", "Å²", 126.16),
    ("CCC(C)CCC(=O)O (stereo not given)", "Å²", 134.11),
    ("CCCCC/C=C\\C/C=C\\C/C=C\\C/C=C\\CCCC(=O)O", "Å²", 186.98),
]

###

# retention time on BEH HILIC column per entry
method-summary: retention time on BEH HILIC column (20 min gradient, 0.4 mL/min); higher = later elution
condition-label: ionization: ESI positive; LC: HILIC, pH 3.0 ammonium formate

# compound, uom, retention time on BEH HILIC column
rows = [
    ("O=C(O)C(CO)c1ccccc1 (stereo unspecified) [Tropate]", "min", 1.08),
    ("CCCCCCC(=O)OC [Methyl heptanoate]", "min", 0.84),
    ("Nc1c(O)cccc1C(=O)O [3-hydroxyanthranilic acid]", "min", 0.9),
    ("O=C(O)c1cccnc1", "min", 2.74),
    ("C[C@@H](CCC(=O)O)CC(=O)O", "min", 1.05),
    ("OC[C@@H](O)[C@@H](O)[C@H](O)[C@@H](O)CO", "min", 4.7),
]

###

# retention time on BEH HILIC column per entry
method-summary: retention time on BEH HILIC column (20 min gradient, 0.4 mL/min); higher = later elution
condition-label: ionization: ESI positive; LC: HILIC, pH 3.0 ammonium formate

# compound, uom, retention time on BEH HILIC column
measured = [
    ("NC(=O)NC1NC(=O)NC1=O (configuration not stated)", "min", 1.56),
    ("CN(CC(=O)O)C(=N)N", "min", 7.83),
    ("O=C(O)c1cccnc1C(=O)O", "min", 2.56),
    ("CC(C)[C@H](N)C(=O)O", "min", 6.79),
    ("Nc1ncnc2c1ncn2[C@@H]1O[C@H](CO)[C@@H](O)[C@H]1O", "min", 2.24),
    ("NC(=O)NCCC[C@H](N)C(=O)O", "min", 8.89),
    ("O=c1ccn([C@@H]2O[C@H](CO)[C@@H](O)[C@H]2O)c(=O)[nH]1", "min", 1.47),
    ("CC(=O)Oc1ccc(O)cc1 [4-hydroxyphenyl acetate]", "min", 0.88),
    ("Nc1ccccc1C(=O)C[C@H](N)C(=O)O", "min", 5.74),
    ("OC[C@H]1O[C@@H](n2cnc3c(O)ncnc32)[C@H](O)[C@@H]1O", "min", 2.31),
    ("O=C(O)[C@H]1O[C@H](O)[C@H](O)[C@@H](O)[C@@H]1O", "min", 0.72),
    ("CCCCCCCCCCCCCCCCCC(=O)O", "min", 0.75),
    ("O=C(O)/C=C\\C(=O)O", "min", 0.82),
    ("O=C[C@H](O)[C@H](O)[C@H](O)[C@@H](O)CO", "min", 3.25),
    ("NC(=O)c1cccnc1 [Niacinamide]", "min", 1.21),
    ("CC(=O)SCCNC(=O)CCNC(=O)[C@H](O)C(C)(C)COP(=O)(O)OP(=O)(O)OC[C@H]1O[C@@H](n2cnc3c(N)ncnc32)[C@H](O)[C@@H]1OP(=O)(O)O", "min", 12),
    ("Nc1ncnc2c1ncn2[C@@H]1O[C@@H]2COP(=O)(O)O[C@H]2[C@H]1O", "min", 6.85),
    ("NCCCNCCCCNCCCN", "min", 13.9),
    ("OC[C@H]1OC(O)[C@H](O)[C@@H]1O (some centres not stated)", "min", 1.71),
    ("OC[C@H]1O[C@@H](O[C@H]2[C@H](O)[C@@H](O)[C@@H](O)O[C@@H]2CO)[C@H](O)[C@@H](O)[C@H]1O", "min", 6.42),
    ("O=C(O)c1cc(O)c2cccc(O)c2n1", "min", 4.47),
    ("Cc1c[nH]c(=O)[nH]c1=O", "min", 1.05),
]

###

method-summary: collision cross section (TWIMS, N2) of ion [M+Na]+; higher = larger gas-phase ion cross section
condition-label: ionization: ESI positive; LC: HILIC, pH 3.0 ammonium formate
Item-by-item account of collision cross section

# molecule, collision cross section / Å²
measured = [
    ("N[C@@H](Cc1ccc(O)cc1)C(=O)O [L-tyrosine]", 143.2),
    ("CCCCCCC(=O)O [Heptanoic acid]", 134.35),
    ("CSCC[C@H](N)C(=O)O [L-methionine]", 135.16),
    ("CC(=O)Oc1ccc(O)cc1 [4-hydroxyphenyl acetate]", 138.25),
    ("C[N+](C)(C)CC(=O)O [Betaine]", 132.22),
    ("OC[C@H]1O[C@H](O)[C@@H](O)[C@@H](O)[C@@H]1O [D-mannose]", 140.11),
    ("CCCCCCCCCCCCCCCCCCCCCC(=O)O [Behenic acid]", 204.26),
    ("OC[C@@H](O)[C@@H](O)[C@H](O)[C@H](O)CO [Mannitol]", 140.03),
    ("O=C(O)CNC(=O)c1ccccc1 [Hippuric acid]", 146.37),
    ("O=C(O)CCCC(=O)C(=O)O [Oxoadipic acid]", 136.98),
    ("OC[C@H]1O[C@@](CO)(O[C@H]2O[C@H](CO)[C@@H](O)[C@H](O)[C@H]2O)[C@@H](O)[C@@H]1O [Sucrose]", 171.56),
]
